Overview of recorded IC50 for various compounds
study-system: human JAK3 (aa 795-1124) catalytic domain (Homo sapiens, UniProt P52333)
Construct: JAK3 (aa 795-1124); GST (N); purchased Carna Biosciences; host or cells: baculovirus expression system
Sequence (P52333 795-1124): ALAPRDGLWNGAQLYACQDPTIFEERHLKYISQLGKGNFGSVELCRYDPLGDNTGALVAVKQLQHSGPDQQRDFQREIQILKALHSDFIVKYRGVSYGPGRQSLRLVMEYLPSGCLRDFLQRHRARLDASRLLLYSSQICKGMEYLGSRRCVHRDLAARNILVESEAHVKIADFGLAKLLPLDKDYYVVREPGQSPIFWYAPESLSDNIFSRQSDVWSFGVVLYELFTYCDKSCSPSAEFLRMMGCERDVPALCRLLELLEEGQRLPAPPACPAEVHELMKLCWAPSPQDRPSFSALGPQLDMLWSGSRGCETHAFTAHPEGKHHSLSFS
experimental-protocol: In vitro JAK kinase assay (TR-FRET), JAK3
Format: biochemical
conditions: GST-fusion catalytic domain; ATP 0.6 μM; poly (GT)-Biotin 140 nM; 30 minutes at room temperature

Please review the following examples before continuing.
# compound, IC50
data = [
    ("Fc1ccc2ncc(-c3nccc(N4CCCC4c4ccccn4)n3)n2c1 (centres unmarked)", "< 0.1 µM"),
    ("O=C(C1CC1(F)F)N1CCC[C@@H](Nc2ccnc(-c3cnc4ccc(F)cn34)n2)C1 (some centres unmarked)", "0.1 to 1 µM"),
    ("N#CCC(=O)N1CCC[C@@H](Nc2ccnc(-c3cnc4ccc(F)cn34)n2)C1", "< 0.1 µM"),
    ("N#Cc1ccc2ncc(-c3nccc(N[C@H]4CC[C@H](O)CC4)n3)n2c1", "< 0.1 µM"),
]

Ask: If you can, please state the reported IC50 value of CS(=O)(=O)c1cnc(-c2cnc3ccc(F)cn23)nc1N[C@@H]1CCCN(C(=O)CC#N)C1 .
Result: 0.1 to 1 µM

* * *

study-system: human JAK1 (aa 850-1154) catalytic domain (Homo sapiens, UniProt P23458)
Construct: human JAK1 (aa 850-1154); GST (N)
Sequence (P23458 850-1154): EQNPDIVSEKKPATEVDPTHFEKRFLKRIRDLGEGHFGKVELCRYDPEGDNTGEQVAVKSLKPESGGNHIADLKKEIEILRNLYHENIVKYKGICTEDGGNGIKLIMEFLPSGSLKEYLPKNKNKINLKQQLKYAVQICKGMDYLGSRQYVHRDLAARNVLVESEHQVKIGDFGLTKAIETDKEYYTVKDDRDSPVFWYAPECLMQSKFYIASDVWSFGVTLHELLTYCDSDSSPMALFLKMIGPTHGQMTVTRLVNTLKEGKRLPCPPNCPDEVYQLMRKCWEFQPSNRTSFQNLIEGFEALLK
experimental-protocol: In vitro JAK kinase assay (TR-FRET), JAK1
conditions: GST-fusion catalytic domain; ATP 3 μM; poly (GT)-Biotin 60 nM; 30 minutes at room temperature
Overview of recorded IC50 for various compounds

Please review the following examples before continuing.
# compound, study-system, result
rows = [
    ("CC(C)S(=O)(=O)N1CCC[C@@H](Nc2ccnc(-c3cnc4ccc(C#N)cn34)n2)C1", "human JAK1 (aa 850-1154) catalytic domain (Homo sapiens, UniProt P23458)", "> 1000 nM"),
    ("Nc1cnc(-c2cnc3ccc(F)cn23)nc1NCc1ccc(F)cn1", "human JAK1 (aa 850-1154) catalytic domain (Homo sapiens, UniProt P23458)", "< 100 nM"),
    ("O=C([C@H](O)CO)N1CCC[C@@H](Nc2nc(-c3cnc4ccc(F)cn34)nc(N3CCOCC3)c2F)C1", "human JAK1 (aa 850-1154) catalytic domain (Homo sapiens, UniProt P23458)", "100 to 1000 nM"),
    ("CC(C)(C)CNc1nc(-c2cnc3ccc(C#N)cn23)nc2ccccc12", "human JAK1 (aa 850-1154) catalytic domain (Homo sapiens, UniProt P23458)", "100 to 1000 nM"),
    ("N#Cc1cnc(N2CCC[C@@H](Nc3ccnc(-c4cnc5ccc(F)cn45)n3)C2)s1", "human JAK1 (aa 850-1154) catalytic domain (Homo sapiens, UniProt P23458)", "< 100 nM"),
]

Ask: If you can, please state the reported IC50 value of N#CCC(=O)N1CCC[C@@H](Nc2cc(OCCN3CCOCC3)nc(-c3cnc4ccc(F)cn34)n2)C1 .
Result: < 100 nM

Ask: What would you report for Cc1cnc(-c2cnc3ccc(F)cn23)nc1N[C@@H]1CCCN(C(=O)CC(F)(F)F)C1 ?
Result: < 100 nM

Ask: What would you report for Nc1cnc(-c2cnc3ccc(F)cn23)nc1NC1CCCc2ncccc21 (stereo not shown) ?
Result: > 1000 nM

Ask: What would you report for N#CCC(=O)N1CCC[C@@H](Nc2cc(N3CCC[C@H]3C(=O)O)nc(-c3cnc4ccc(F)cn34)n2)C1 ?
Result: 100 to 1000 nM

Ask: What would you report for C[C@H](Nc1cncc(-c2cnc3ccc(C4CC4)cn23)n1)c1ccccc1 ?
Result: > 1000 nM

Ask: What would you report for N#CCC(=O)N1CCC[C@@H](Nc2cc(-n3cncn3)nc(-c3cnc4ccc(F)cn34)n2)C1 ?
Result: 100 to 1000 nM

Ask: What would you report for N#CC[C@H]1CC[C@H](Nc2nc(-c3cnc4ccc(F)cn34)ncc2C(N)=O)CC1 ?
Result: > 1000 nM
